Entries and their IC50 values follow.
- target-desc: human MDM2 protein (amino acids 2-188) (Homo sapiens (Human))
- Sequence (Q00987 2-188): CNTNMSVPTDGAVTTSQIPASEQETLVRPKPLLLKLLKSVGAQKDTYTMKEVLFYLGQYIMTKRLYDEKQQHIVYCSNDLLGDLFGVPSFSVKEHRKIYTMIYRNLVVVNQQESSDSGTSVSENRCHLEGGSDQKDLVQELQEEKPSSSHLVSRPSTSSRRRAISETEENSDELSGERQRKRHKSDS
- test: TR-FRET p53-MDM2 Assay 2 (modified: 0.1 nM MDM2)
- Format: binding
- condition: 0.1 nM MDM2, 0.1 nM Europium labeled streptavidin, Tecan genios Pro reader
Output spec: scalar in nM, unitless text.

Some solved entries appear below for comparison.
{"columns": ["compound", "target-desc", "obs-value"],
 "data": [
  ["COc1ccc(C(=O)N(C)C)cc1-c1nc2c(n1C(C)C)C(c1ccc(Cl)cc1C)N(c1cc(Cl)ccc1C)C(=O)N2 (stereo not shown)", "human MDM2 protein (amino acids 2-188) (Homo sapiens (Human))", 0.432],
  ["COc1ccccc1-c1nc2c(n1C(C)C)C(c1ccc(Cl)cc1C)N(c1cccc(Cl)c1F)C(=O)N2 (stereo not shown)", "human MDM2 protein (amino acids 2-188) (Homo sapiens (Human))", 0.779],
  ["CNC(=O)c1ccc(OC)c(-c2nc3c(n2C(C)C)C(c2ccc(Cl)cc2C)N(c2cc(Cl)ccc2C)C(=O)N3)c1 (stereo not shown)", "human MDM2 protein (amino acids 2-188) (Homo sapiens (Human))", 0.21]
]}

# return recorded IC50 for entry COc1ncc(-c2nc3c(n2C(C)C)C(c2ccc(Cl)cc2C)N(c2cc(Cl)c(=O)n(C)c2)C(=O)N3)c(OC)n1 (stereo not shown) 3.11
